biological target: 1,25-dihydroxyvitamin D(3) 24-hydroxylase, mitochondrial (Homo sapiens, UniProt Q07973); assay: Inhibition of human CYP24 hydroxylase expressed in V79 cells
Sequence (Q07973 whole entry): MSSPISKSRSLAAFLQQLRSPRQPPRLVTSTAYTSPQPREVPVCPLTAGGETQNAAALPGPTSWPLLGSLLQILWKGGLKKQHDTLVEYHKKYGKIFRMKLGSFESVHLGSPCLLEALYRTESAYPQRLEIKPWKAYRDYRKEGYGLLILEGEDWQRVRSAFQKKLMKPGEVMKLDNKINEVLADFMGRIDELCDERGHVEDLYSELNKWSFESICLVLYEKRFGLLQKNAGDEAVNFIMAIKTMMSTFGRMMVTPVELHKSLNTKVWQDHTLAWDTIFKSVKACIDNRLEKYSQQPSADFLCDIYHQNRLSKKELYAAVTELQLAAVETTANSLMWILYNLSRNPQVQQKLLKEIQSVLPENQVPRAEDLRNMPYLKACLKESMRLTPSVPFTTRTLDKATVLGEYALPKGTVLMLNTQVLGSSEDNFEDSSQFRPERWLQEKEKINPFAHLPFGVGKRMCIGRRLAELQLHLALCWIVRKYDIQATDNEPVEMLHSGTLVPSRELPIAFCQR
Threshold check on IC50: strictly below 50 nM is satisfied; on or above 50 nM is not satisfied.

Query: Answer whether the molecule C=C1CC[C@H](O)C/C1=C/C=C1\CCC[C@]2(C)[C@@H]([C@H](C)CC[S+](=N)([O-])c3ccccc3)CC[C@@H]12 (stereo partly specified) has IC50 strictly less than 50 nM
Reply: not satisfied

Query: Answer whether the molecule C=C1/C(=C\C=C2/CCC[C@]3(C)[C@@H]([C@H](C)/C=C/[S+](=N)([O-])c4ccccc4)CC[C@@H]23)C[C@@H](O)C[C@@H]1O (stereo partly specified) has IC50 strictly less than 50 nM
Reply: not satisfied

Query: Answer whether the molecule C[C@H](CC[S+](=N)([O-])c1ccccc1)[C@H]1CC[C@H]2/C(=C/C=C3C[C@@H](O)C[C@H](O)C3)CCC[C@]12C (stereo in doubt; 3c) has IC50 strictly less than 50 nM
Reply: satisfied

Query: Answer whether the molecule C=C1/C(=C\C=C2/CCC[C@]3(C)[C@@H]([C@H](C)CCS(=N)(=O)c4ccccc4)CC[C@@H]23)C[C@@H](O)C[C@@H]1O (stereo in doubt; 3a) has IC50 strictly less than 50 nM
Reply: satisfied

Query: Answer whether the molecule C=C1/C(=C\C=C2/CCC[C@]3(C)[C@@H]([C@@H](C)/C=C/[S+](=N)([O-])c4ccccc4)CC[C@@H]23)C[C@@H](O)C[C@@H]1O (stereo partly specified) has IC50 strictly less than 50 nM
Reply: not satisfied

====

biological target: 1,25-dihydroxyvitamin D(3) 24-hydroxylase, mitochondrial (Homo sapiens, UniProt Q07973); assay: Inhibition of human CYP24 hydroxylase expressed in V79 cells
VALUE TYPE: IC50 (nM)
// note: answer is a bare numeric in nM

Let me check: C[C@H](CC[S+](=N)([O-])c1ccccc1)[C@H]1CC[C@H]2/C(=C/C=C3C[C@@H](O)C[C@H](O)C3)CCC[C@]12C (stereo in doubt; 3d) , system 1,25-dihydroxyvitamin D(3) 24-hydroxylase, mitochondrial (Homo sapiens, UniProt Q07973), measured IC50 is 9.7

Let me check: C=C1/C(=C\C=C2/CCC[C@]3(C)[C@@H]([C@H](C)CC4([S+](=N)([O-])c5ccccc5)CC4)CC[C@@H]23)C[C@@H](O)C[C@@H]1O (stereo in doubt; 3f) , system 1,25-dihydroxyvitamin D(3) 24-hydroxylase, mitochondrial (Homo sapiens, UniProt Q07973), measured IC50 is 20.5

Let me check: C=C1/C(=C\C=C2/CCC[C@]3(C)[C@@H]([C@H](C)CC[S+](=N)([O-])c4ccc(F)cc4)CC[C@@H]23)C[C@@H](O)C[C@@H]1O (stereo in doubt; 3i) , system 1,25-dihydroxyvitamin D(3) 24-hydroxylase, mitochondrial (Homo sapiens, UniProt Q07973), measured IC50 is 44

The measurements presented in this section are drawn from ChEMBL document CHEMBL1149309.
